method: Toxicokinetics after escalating intravenous doses of CKLP1 in beagles
Assay type: in vivo, beagle dog
measurement.context: male, beagle, dog, in vivo, iv, 5 mg/kg
measurement.kind: Cmax (ng/mL)
Enter your answer as a number in ng/mL; do not include the unit.

Sample CC1(C)Oc2ccc(C#N)cc2[C@@H](N2CCCC2=O)[C@@H]1OP(=O)(O)O — what was its Cmax?
22400

---

method: Plasma pharmacokinetics of CKLP1 and levcromakalim after topical dosing in hound dogs
Assay type: in vivo, hound dog
measurement.context: hound, dog, plasma, topical or ocular, 10 mM CKLP1, 50 µL in each of both eyes, levcromakalim after topical 10 mM CKLP1 once daily; Day 4
measurement.kind: AUC(0-t) (ng·h/mL)
Enter your answer as a number in ng·h/mL; do not include the unit.

Sample CC1(C)Oc2ccc(C#N)cc2[C@@H](N2CCCC2=O)[C@@H]1O [Levcromakalim, levcromakalim, reference compound] — what was its AUC(0-t)?
6.3
